For each of the compounds below, state its inhibition.
Target: Tubulin (Homo sapiens) (UniProt P68371+Q9H4B7+P0DPH7+P68366+Q13509+Q71U36+P04350+Q3ZCM7+P07437+P68363+Q9BQE3+Q6PEY2+Q13885+Q9BVA1+Q9BUF5)
Experiment: Inhibition of tubulin (unknown origin) polymerization at 50 uM by turbidometric method relative to control
Type: protein-complex assay

Name the recorded inhibition of the item CCCC(Nc1cncc(-c2ccc(OCCCN3CCCC3)c(OC)c2)n1)c1ccccc1 (stereo not drawn) in your answer.
> 50%

Name the recorded inhibition of the item CCCC(Nc1cncc(-c2ccc(OCCCCN3CCCCC3)c(OC)c2)n1)c1ccccc1 (stereo not drawn) in your answer.
> 50%

Name the recorded inhibition of the item CC[C@H](Nc1cncc(-c2ccc(O)c(OC)c2)n1)c1ccccc1 in your answer.
> 50%
